Reference for the values: patent US6780875B2

Structures can show the parent of a compound that is named as a salt.
readout_kind: melting point

Consider the following illustrative entries.
[
  {
    "compound": "CCN1CCN(Cc2c(-c3ccccc3)nc3ccccc3c2C(=O)N[C@@H](C)C2CCCCC2)CC1 (as salt: HCl) [Example 37]",
    "melting point": "188 to 190 °C"
  },
  {
    "compound": "CC[C@H](NC(=O)c1c(CN2CCC(N3CCCCC3)CC2)c(-c2ccccc2)nc2cc(O)ccc12)c1ccccc1 [Example 95]",
    "melting point": "158 to 162 °C"
  },
  {
    "compound": "CC[C@H](NC(=O)c1c(CN2CCC(N3CCCCC3)CC2)c(-c2ccccc2)nc2c(Br)c(OC)ccc12)c1ccccc1 [Example 66]",
    "melting point": "156 to 160 °C"
  },
  {
    "compound": "CCN(CC)CCC(=O)N1CCN(Cc2c(-c3ccccc3)nc3ccccc3c2C(=O)N[C@@H](C)C2CCCCC2)CC1 [Example 47]",
    "melting point": "104 to 106 °C"
  },
  {
    "compound": "C[C@H](NC(=O)c1c(CN2CCN(c3ccccn3)CC2)c(-c2ccccc2)nc2ccccc12)C1CCCCC1 [Example 59]",
    "melting point": "152 to 154 °C"
  },
  {
    "compound": "CC[C@H](NC(=O)c1c(CN2CCN(C(=O)c3ccccc3)CC2)c(-c2ccccc2)nc2ccccc12)c1ccccc1 [Example 31]",
    "melting point": "180 to 182 °C"
  }
]

Now for the compound whose melting point we want.
Please report the recorded melting point for C[C@H](NC(=O)c1c(CN2CCC(N3CCC(O)CC3)CC2)c(-c2ccccc2)nc2ccccc12)C1CCCCC1 [Example 43] .
150 to 160 °C

---

readout_kind: melting point

These solved cases illustrate the format of a correct answer.
[
  {
    "compound_structure_string": "C[C@H](NC(=O)c1c(CN2CCN(C(=NC#N)N3CCCC3)CC2)c(-c2ccccc2)nc2ccccc12)C1CCCCC1",
    "melting point": "154 to 155 °C"
  },
  {
    "compound_structure_string": "COCCN1CCN(Cc2c(-c3ccccc3)nc3ccccc3c2C(=O)N[C@@H](C)C2CCCCC2)CC1",
    "melting point": "113 to 115 °C"
  },
  {
    "compound_structure_string": "CC[C@H](NC(=O)c1c(CN2CCC(c3ccccc3)CC2)c(-c2ccccc2)nc2ccccc12)c1ccccc1",
    "melting point": "90 to 95 °C"
  },
  {
    "compound_structure_string": "C[C@H](NC(=O)c1c(CN2CCN(CC(=O)O)CC2)c(-c2ccccc2)nc2ccccc12)C1CCCCC1",
    "melting point": "188 to 195 °C"
  }
]

Hey, can you go through the list below and give me melting point for every item?
1. C[C@H](NC(=O)c1c(CN2CCN(C(=C[N+](=O)[O-])N3CCCC3)CC2)c(-c2ccccc2)nc2ccccc12)C1CCCCC1
2. CC[C@H](NC(=O)c1c(CN2CCN(c3ccccn3)CC2)c(-c2ccccc2)nc2ccccc12)c1ccccc1
3. C[C@H](NC(=O)c1c(CN2CCN(CCO)CC2)c(-c2ccccc2)nc2ccccc12)C1CCCCC1

164 to 165 °C
125 to 126 °C
95 to 105 °C
